System: Staphylococcus aureus
assay-summary: Antibacterial activity against Staphylococcus aureus ATCC 12600 at 10 mg/disc after 48 hrs by disc-diffusion method
Type: functional
endpoint: diameter of the inhibition zone (DIZ) (mm)
Provide only the numeric value, understood in mm.

The cases that follow already have their diameter of the inhibition zone (DIZ) on record.
{"test-smiles": "Cc1nc2c(C#N)c(-c3ccc(Br)cc3)[nH]c(=S)n2n1", "diameter of the inhibition zone (DIZ), mm": 7}
{"test-smiles": "N#Cc1c(NN)nc(=S)[nH]c1-c1ccc(Br)cc1", "diameter of the inhibition zone (DIZ), mm": 13}
{"test-smiles": "N#Cc1c(-c2ccc(F)cc2)[nH]c(=S)n2c(=O)c(=O)[nH]nc12", "diameter of the inhibition zone (DIZ), mm": 14}

Would you kindly look at the next entry?
Would you mind telling me what diameter of the inhibition zone (DIZ) value was observed for COc1cc(-c2[nH]c(=S)n3nc(C)nc3c2C#N)cc(OC)c1OC ? 6

---

Test system: Candida albicans
assay-summary: Antifungal activity against Candida albicans ATCC 26555 at 10 mg/disc after 48 hrs by disc-diffusion method
Type: functional
Active and inactive are the calls of the source. No cut-off for these calls is given here.
endpoint: diameter of the inhibition zone (DIZ)

{"test-smiles": "N#Cc1c(NN)nc(=S)[nH]c1-c1ccc(Br)cc1", "diameter of the inhibition zone (DIZ)": "inactive"}
{"test-smiles": "Cc1nc2c(C#N)c(-c3ccc(Br)cc3)[nH]c(=S)n2n1", "diameter of the inhibition zone (DIZ)": "8 mm"}
{"test-smiles": "N#Cc1c(-c2ccc(F)cc2)[nH]c(=S)n2nnnc12", "diameter of the inhibition zone (DIZ)": "inactive"}
{"test-smiles": "COc1cc(-c2[nH]c(=S)n3ncnc3c2C#N)cc(OC)c1OC", "diameter of the inhibition zone (DIZ)": "8 mm"}
{"test-smiles": "Cc1nnc2c(C#N)c(-c3ccc(F)cc3)[nH]c(=S)n12", "diameter of the inhibition zone (DIZ)": "inactive"}

Would you mind telling me what diameter of the inhibition zone (DIZ) value was observed for Cc1cc(C)n(-c2nc(=S)[nH]c(-c3ccc(Br)cc3)c2C#N)n1 ? inactive

And the next one, Cc1nnc2c(C#N)c(-c3ccc(Br)cc3)[nH]c(=S)n12 ? inactive

And the next one, N#Cc1c(-c2ccc(Br)cc2)[nH]c(=S)n2ncnc12 ? 8 mm

And the next one, N#Cc1c(N/N=C/c2ccc(F)cc2)nc(=S)[nH]c1-c1ccc(F)cc1 ? 15 mm

And the next one, COc1cc(-c2[nH]c(=S)n3c(C)nnc3c2C#N)cc(OC)c1OC ? inactive

And the next one, N#Cc1c(NN)nc(=S)[nH]c1-c1ccc(F)cc1 ? inactive

And the next one, COc1cc(-c2[nH]c(=S)n3c(=S)[nH]nc3c2C#N)cc(OC)c1OC ? 12 mm

And the next one, N#Cc1c(-c2ccc(F)cc2)[nH]c(=S)n2cnnc12 ? 18 mm

---

Tested on: Aspergillus flavus
assay-summary: Antifungal activity against Aspergillus flavus ATCC 11495 at 10 mg/disc after 48 hrs by disc-diffusion method
Format: functional
endpoint: diameter of the inhibition zone (DIZ)

The cases that follow already have their diameter of the inhibition zone (DIZ) on record.
{"test-smiles": "N#Cc1c(N/N=C/c2ccccc2)nc(=S)[nH]c1-c1ccc(F)cc1", "observed-result": "19 mm"}
{"test-smiles": "N#Cc1c(-c2ccc(Br)cc2)[nH]c(=S)n2cnnc12", "observed-result": "17 mm"}

Would you mind telling me what diameter of the inhibition zone (DIZ) value was observed for COc1cc(-c2[nH]c(=S)n3cnnc3c2C#N)cc(OC)c1OC ? 18 mm

Measured values drawn from ChEMBL document CHEMBL2434844 for this set.
